So I've got a bunch of molecules here, and I need their hERG current change (%, negative = inhibition) at 10uM values.
- measuredOn: human ether-à-go-go-related gene (hERG) potassium channel (human)
- assayDetails: primary screen, population patch clamp on CHO cells stably expressing hERG; higher = less effect of the substance
Hit rate of the full screen: of about 310,000 compounds, about 14,000 (4.5%) showed an effect of 50% or more. Effects have a minus sign here. The list comes from a sample in which strong results are over-represented; it also holds close analogues and randomly drawn compounds.
State the answer as a number, implicitly in %.

*Q* Give recorded hERG current change (%, negative = inhibition) at 10uM. "Cn1c(Sc2ccc(C(F)(F)F)cc2[N+](=O)[O-])nnc1-c1ccccc1"
*A* -62.8

*Q* Give recorded hERG current change (%, negative = inhibition) at 10uM. "Cc1ccc(C(=O)N2CCC(Cc3ccccc3)CC2)cc1[N+](=O)[O-]"
*A* -63.8

*Q* Give recorded hERG current change (%, negative = inhibition) at 10uM. c1cncc(C2CCCCN2)c1 (centres unmarked)
*A* -6.38

*Q* Give recorded hERG current change (%, negative = inhibition) at 10uM. "CCCCOc1cc(C)nc(NCc2ccccc2)n1"
*A* 5.5

*Q* Give recorded hERG current change (%, negative = inhibition) at 10uM. "COc1ccc2cc(CCNC(=O)C(C)C)c(=O)[nH]c2c1"
*A* 13.4

*Q* Give recorded hERG current change (%, negative = inhibition) at 10uM. "Cn1c(O)c(C(=Nc2ccccc2)SCc2ccccc2Cl)c(=O)n(C)c1=O"
*A* 21.5

*Q* Give recorded hERG current change (%, negative = inhibition) at 10uM. "O=[N+]([O-])c1cccc(CN2CCC(Cc3ccccc3)CC2)c1"
*A* -31.4

*Q* Give recorded hERG current change (%, negative = inhibition) at 10uM. "COc1cccc(-n2cc(CNCc3cn(C)nc3-c3ccccc3F)cn2)c1"
*A* -19.3

*Q* Give recorded hERG current change (%, negative = inhibition) at 10uM. "O=C(c1ccc([N+](=O)[O-])cc1)N1CCC(Cc2ccccc2)CC1"
*A* -73.4

*Q* Give recorded hERG current change (%, negative = inhibition) at 10uM. "Cn1cc(CNCCCn2ncc3ccccc32)c(-c2ccccc2F)n1"
*A* -36.3

*Q* Give recorded hERG current change (%, negative = inhibition) at 10uM. "Cc1cccc2cc(-c3nc4c(C)cccn4c3NCc3ccco3)c(=O)[nH]c12"
*A* -11.5

*Q* Give recorded hERG current change (%, negative = inhibition) at 10uM. "CCn1ccnc1CN(C)Cc1cn(C)nc1-c1ccccc1F"
*A* 13.2

*Q* Give recorded hERG current change (%, negative = inhibition) at 10uM. Fc1ccc(C2c3cccn3CCN2C(=S)Nc2cccc(F)c2)cc1 (centres unmarked)
*A* 6.02

*Q* Give recorded hERG current change (%, negative = inhibition) at 10uM. "CSc1nnc(-c2ccccc2)n1C"
*A* 5.22

*Q* Give recorded hERG current change (%, negative = inhibition) at 10uM. "CN(Cc1ccc(-n2cccn2)cc1)Cc1cn(C)nc1-c1ccccc1F"
*A* -74.9

*Q* Give recorded hERG current change (%, negative = inhibition) at 10uM. "COc1ccc(-c2csc(COC(=O)C(C)(C)C)n2)cc1"
*A* 18

*Q* Give recorded hERG current change (%, negative = inhibition) at 10uM. "Cn1c(Sc2ccc([N+](=O)[O-])cc2C(F)(F)F)nnc1-c1ccccc1"
*A* -55

* * *

- measuredOn: human ether-à-go-go-related gene (hERG) potassium channel (human, UniProt Q12809)
- Sequence (Q12809 whole entry, looked up): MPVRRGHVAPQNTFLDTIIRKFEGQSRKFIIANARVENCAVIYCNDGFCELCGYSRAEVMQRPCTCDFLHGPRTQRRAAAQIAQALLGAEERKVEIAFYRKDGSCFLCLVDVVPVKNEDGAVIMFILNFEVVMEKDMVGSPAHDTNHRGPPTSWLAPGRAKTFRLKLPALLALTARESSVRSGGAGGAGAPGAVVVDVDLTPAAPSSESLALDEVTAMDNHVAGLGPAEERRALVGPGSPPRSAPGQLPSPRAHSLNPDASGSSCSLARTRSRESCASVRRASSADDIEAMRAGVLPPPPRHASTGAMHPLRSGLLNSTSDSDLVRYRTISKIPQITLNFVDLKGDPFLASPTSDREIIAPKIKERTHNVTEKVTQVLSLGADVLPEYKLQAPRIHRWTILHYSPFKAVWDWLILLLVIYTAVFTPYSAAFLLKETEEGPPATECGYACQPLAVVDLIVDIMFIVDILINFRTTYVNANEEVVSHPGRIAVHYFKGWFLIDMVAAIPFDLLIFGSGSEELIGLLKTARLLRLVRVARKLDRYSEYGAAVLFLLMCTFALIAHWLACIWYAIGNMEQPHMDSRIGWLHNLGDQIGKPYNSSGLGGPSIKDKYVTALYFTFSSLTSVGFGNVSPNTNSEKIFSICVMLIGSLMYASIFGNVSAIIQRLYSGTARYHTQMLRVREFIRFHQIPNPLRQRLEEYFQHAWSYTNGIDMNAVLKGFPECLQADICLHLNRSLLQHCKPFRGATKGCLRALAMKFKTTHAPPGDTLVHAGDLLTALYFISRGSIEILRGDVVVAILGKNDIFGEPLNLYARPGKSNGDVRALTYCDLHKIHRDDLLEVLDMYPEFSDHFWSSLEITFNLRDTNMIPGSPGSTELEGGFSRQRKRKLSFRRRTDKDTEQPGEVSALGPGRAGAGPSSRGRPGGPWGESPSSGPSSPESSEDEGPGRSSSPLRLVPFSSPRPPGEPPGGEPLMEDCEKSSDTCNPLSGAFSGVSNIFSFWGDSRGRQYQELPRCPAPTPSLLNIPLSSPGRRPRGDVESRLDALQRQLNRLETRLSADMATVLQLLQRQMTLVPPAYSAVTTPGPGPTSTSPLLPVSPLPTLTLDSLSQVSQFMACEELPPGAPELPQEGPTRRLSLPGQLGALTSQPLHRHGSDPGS
- assayDetails: primary screen, population patch clamp on CHO cells stably expressing hERG; higher = less effect of the substance
Hit rate of the full screen: of about 310,000 compounds, about 14,000 (4.5%) showed an effect of 50% or more. Effects have a minus sign here. The sample as a whole holds a higher share of strong results than the screen did.
metricName: hERG current change (%, negative = inhibition) at 10uM (%)
State the answer as a number, implicitly in %.

*Q* // fetch hERG current change (%, negative = inhibition) at 10uM; item: "O=C(NCc1ccccn1)c1cn(-c2ccccc2)nc1-c1ccc(Cl)cc1" ; system: human ether-à-go-go-related gene (hERG) potassium channel (human, UniProt Q12809);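 further: peak tail current of the secondary pulse compared with the same well before compound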
*A* -1.67

*Q* // fetch hERG current change (%, negative = inhibition) at 10uM; item: "Cc1ccc2nc(SCC(=O)Nc3cc([N+](=O)[O-])ccc3F)[nH]c2c1" ; system: human ether-à-go-go-related gene (hERG) potassium channel (human, UniProt Q12809);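 further: peak tail current of the secondary pulse compared with the same well before compound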
*A* -57.4

*Q* // fetch hERG current change (%, negative = inhibition) at 10uM; item: "Cc1cnc(=O)[nH]c1SCc1cccc([N+](=O)[O-])c1" ; system: human ether-à-go-go-related gene (hERG) potassium channel (human, UniProt Q12809);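 further: peak tail current of the secondary pulse compared with the same well before compound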
*A* 2.35

*Q* // fetch hERG current change (%, negative = inhibition) at 10uM; item: "Cc1cnc(=O)[nH]c1SCc1ccc([N+](=O)[O-])cc1" ; system: human ether-à-go-go-related gene (hERG) potassium channel (human, UniProt Q12809);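 further: peak tail current of the secondary pulse compared with the same well before compound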
*A* -70.1

* * *

- measuredOn: human ether-à-go-go-related gene (hERG) potassium channel (human, UniProt Q12809)
- assayDetails: primary screen, population patch clamp on CHO cells stably expressing hERG; higher = less effect of the substance
Out of some 310,000 compounds screened, about 14,000 (4.5%) showed an effect of 50% or more. The effect is printed as a negative number. For the sample, strong results were picked, then their nearest neighbours and some compounds at random.
metricName: hERG current change (%, negative = inhibition) at 10uM (%)
State the answer as a number, implicitly in %.

*Q* Give recorded hERG current change (%, negative = inhibition) at 10uM. "Cn1c(SCC(=O)c2ccccc2)nnc1-c1ccncc1"
*A* -0.277

*Q* Give recorded hERG current change (%, negative = inhibition) at 10uM. "N=c1c2c(-c3ccccc3)c(-c3ccccc3)n(Cc3ccco3)c2ncn1CCCN1CCOCC1"
*A* -84.9

*Q* Give recorded hERG current change (%, negative = inhibition) at 10uM. "Nc1nnnn1/N=C/c1cccs1"
*A* 3.28

*Q* Give recorded hERG current change (%, negative = inhibition) at 10uM. "O=C(OCC(=O)c1ccccc1Cl)c1cnccn1"
*A* -0.611

*Q* Give recorded hERG current change (%, negative = inhibition) at 10uM. "COCCn1c(SCC(=O)N2CCOCC2)nnc1-c1ccncc1"
*A* -7.01

*Q* Give recorded hERG current change (%, negative = inhibition) at 10uM. "O=c1c2ccccc2nc(-c2ccccc2)n1CCCN1CCOCC1"
*A* -20.4

*Q* Give recorded hERG current change (%, negative = inhibition) at 10uM. "Cn1c(SCCCC(=O)c2ccccc2)nnc1-c1ccncc1"
*A* -42.9

*Q* Give recorded hERG current change (%, negative = inhibition) at 10uM. "CCOc1cc(S(=O)(=O)NCCCn2ccnc2)ccc1Cl"
*A* -64

*Q* Give recorded hERG current change (%, negative = inhibition) at 10uM. Cc1ccc(S(=O)(=O)N2CCCC2CNC(=O)C(=O)NC2CCCC2)cc1 (stereo not drawn)
*A* -40.3

*Q* Give recorded hERG current change (%, negative = inhibition) at 10uM. "O=C(OCC(=O)c1ccc(Cl)cc1Cl)c1cnccn1"
*A* -58.3

*Q* Give recorded hERG current change (%, negative = inhibition) at 10uM. "Cn1c(SCCCC(=O)c2ccc(Br)cc2)nnc1-c1ccncc1"
*A* -70.2

*Q* Give recorded hERG current change (%, negative = inhibition) at 10uM. "Cc1cc(Cl)ccc1OCCCC(=O)NCCCn1ccnc1"
*A* -68.1

*Q* Give recorded hERG current change (%, negative = inhibition) at 10uM. "CCOC(=O)Cc1cc(C)[nH]c1C(=O)OCC"
*A* -5.81

*Q* Give recorded hERG current change (%, negative = inhibition) at 10uM. "Cc1oc(-c2cccc(Cl)c2)nc1CS(=O)(=O)CC(=O)NCCN1CCCC1"
*A* -0.675

*Q* Give recorded hERG current change (%, negative = inhibition) at 10uM. "O=C(NCCCN1CCOCC1)C(=O)NCc1ccco1"
*A* -1.68

* * *

- measuredOn: human ether-à-go-go-related gene (hERG) potassium channel (human, UniProt Q12809)
- assayDetails: primary screen, population patch clamp on CHO cells stably expressing hERG; higher = less effect of the substance
Among all 310,000 compounds or so, about 14,000 (4.5%) showed an effect of 50% or more. Effects have a minus sign here. The list comes from a sample in which strong results are over-represented; it also holds close analogues and randomly drawn compounds.
Entry flag: Fulfilled if hERG current change (%, negative = inhibition) at 10uM reaches -40%; Not fulfilled if it does not.

*Q* Could you please find out whether "Cc1c(N=Nc2c(O)n(C)c(=O)n(C)c2=O)c(=O)n(-c2ccccc2)n1C" has hERG current change (%, negative = inhibition) at 10uM that meets -40% or exceeds it?
*A* Fulfilled

*Q* Could you please find out whether "CN(c1ccc(OCC(=O)NCc2cccnc2)cc1)S(=O)(=O)c1ccc(Cl)cc1" has hERG current change (%, negative = inhibition) at 10uM that meets -40% or exceeds it?
*A* Not fulfilled

*Q* Could you please find out whether "COc1ccc(OCc2cc(C(=O)N3CCC(OC)CC3)no2)c2ccccc12" has hERG current change (%, negative = inhibition) at 10uM that meets -40% or exceeds it?
*A* Fulfilled

*Q* Could you please find out whether "CCN(CC)CCN(C(=O)c1ccc(C(=O)c2ccccc2)cc1)c1nc2ccc(OC)cc2s1.Cl" has hERG current change (%, negative = inhibition) at 10uM that meets -40% or exceeds it?
*A* Not fulfilled

*Q* Could you please find out whether COc1cccc(NC(C(=O)Nc2cccc(C(C)=O)c2)c2ccccc2)c1 (stereo not shown) has hERG current change (%, negative = inhibition) at 10uM that meets -40% or exceeds it?
*A* Fulfilled

*Q* Could you please find out whether "COc1ccc(N2CCN(CCCNC(=O)CN3CCN(Cc4ccccc4C)C3=O)CC2)cc1" has hERG current change (%, negative = inhibition) at 10uM that meets -40% or exceeds it?
*A* Not fulfilled

*Q* Could you please find out whether "CCCOC(=O)c1ccc(Nc2nc(C)cc(=O)[nH]2)cc1" has hERG current change (%, negative = inhibition) at 10uM that meets -40% or exceeds it?
*A* Fulfilled

*Q* Could you please find out whether "Cc1ccc(S(=O)(=O)N(Cc2ccc(Cl)cc2)c2ccccc2C(=O)NCc2cccnc2)cc1" has hERG current change (%, negative = inhibition) at 10uM that meets -40% or exceeds it?
*A* Not fulfilled

*Q* Could you please find out whether "Cc1noc(C)c1CSCC(=O)N1CCN(c2ccc(F)cc2)CC1" has hERG current change (%, negative = inhibition) at 10uM that meets -40% or exceeds it?
*A* Fulfilled

*Q* Could you please find out whether "COc1ccc(CCNC(=O)CCCN2C(=O)c3ccccc3C2=O)cc1" has hERG current change (%, negative = inhibition) at 10uM that meets -40% or exceeds it?
*A* Fulfilled

*Q* Could you please find out whether "Cc1noc(C)c1COc1ccc(C(=O)N2CCN(c3ccccc3O)CC2)cc1" has hERG current change (%, negative = inhibition) at 10uM that meets -40% or exceeds it?
*A* Fulfilled

*Q* Could you please find out whether "Brc1ccccc1CNCCc1ccc2c(c1)OCO2" has hERG current change (%, negative = inhibition) at 10uM that meets -40% or exceeds it?
*A* Fulfilled

*Q* Could you please find out whether "CCOc1cccc(=O)c2c(C)n(C)c(C)c12" has hERG current change (%, negative = inhibition) at 10uM that meets -40% or exceeds it?
*A* Fulfilled

*Q* Could you please find out whether "COc1cc(C(=O)N2CCN(S(=O)(=O)c3ccc(C)cc3)CC2)ccc1OCc1c(C)noc1C" has hERG current change (%, negative = inhibition) at 10uM that meets -40% or exceeds it?
*A* Fulfilled

*Q* Could you please find out whether "COC(=O)c1cc(-c2cccc([N+](=O)[O-])c2)c2c(=O)[nH]c(=O)n(C)c2n1" has hERG current change (%, negative = inhibition) at 10uM that meets -40% or exceeds it?
*A* Fulfilled

*Q* Could you please find out whether "COc1ccc(N2CCN(c3nc(NCCc4ccc(OC)c(OC)c4)nc(OC)n3)CC2)cc1" has hERG current change (%, negative = inhibition) at 10uM that meets -40% or exceeds it?
*A* Not fulfilled

*Q* Could you please find out whether "CCOc1ccc(NC(=O)CSc2nc(=O)n(Cc3cccnc3)c3c2CCC3)cc1" has hERG current change (%, negative = inhibition) at 10uM that meets -40% or exceeds it?
*A* Fulfilled

*Q* Could you please find out whether "O=C(COc1ccc(S(=O)(=O)N2CCCC2)cc1Cl)NCc1cccnc1" has hERG current change (%, negative = inhibition) at 10uM that meets -40% or exceeds it?
*A* Not fulfilled

*Q* Could you please find out whether CCOC(=O)c1ccc(N2C(=O)c3n[nH]c(C)c3C2c2ccco2)cc1 (stereo not shown) has hERG current change (%, negative = inhibition) at 10uM that meets -40% or exceeds it?
*A* Fulfilled
